- Test system: Follistatin-related protein 3 (Homo sapiens)
- Assay protocol: FSTL3 binders on small-molecule microarrays, primary screen, biochemical, small-molecule microarray, 635 nm fluorescence (AID 1105);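 also: score merges emission near 667 nm and signal to noise per printed spot across three slides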
- Experimental conditions: FSTL3 binding, higher = more signal
# composite z-score per entry
Property label: composite z-score

Molecule	Reported result
CC(=O)OC[C@H]1O[C@H](C#Cc2ccccc2)C=C[C@@H]1OC(C)=O	0.59
COC(=O)CC=C[C@@H](C)[C@@H](C=NO[C@H](C)c1cn([C@H](CO)Cc2ccccc2)nn1)NS(=O)(=O)c1ccc(C)cc1	0.226
O=C1OCCC=C1C(O)CCc1ccccc1 (configuration not stated)	0.527
C#CCCCON=C1C[C@@H](O)[C@@H](O)[C@@H]2[C@@H]3C(=O)N(c4cccc(Oc5ccccc5)c4)C(=O)[C@@H]3CC[C@H]12	-0.845
CO[C@H]1COC(=O)[C@@H](C)COC(=O)[C@H](C)NC(=O)CC=C[C@H]1C	1.54
CC(C)CON=C1C[C@@H](O)[C@@H](O)[C@@H]2[C@@H]3C(=O)N(C[C@@H]4CCCO4)C(=O)[C@@H]3CC[C@@H]12	-0.336
CC(=O)O[C@H]1C2=CO[C@H](C)[C@H]3[C@H]4C5=C([C@H](O)[C@H]6O[C@H]6C5=O)[C@H](OC4C)[C@@]23C(=O)[C@@H]2O[C@@H]21 (some centres not stated)	0.0068
COC(=O)CC=C[C@@H](C)[C@@H](C=NOC(C)CN1CCCc2nc(C)c(C)cc21)OC (some centres not stated)	0.406
CC(CCN1CCCCc2nc(C)c(C)cc21)=NOC[C@@H](C)[C@H](OCc1ccccc1)C(C)C	-2.25
COC(=O)[C@H]1[C@@H](O)[C@@]2(O)c3ccccc3O[C@@]2(c2ccccc2)[C@@H]1c1ccccc1	-0.134
C=Cc1ccc([C@H]2N[C@H](C(=O)O)CC[C@@H]2C)cc1	0.505
O=C1[C@H]2[C@H]3[C@H](O)[C@H](O)CC(=NOCc4ccccc4)[C@H]3CC[C@H]2C(=O)N1Cc1ccc2c(c1)OCO2	0.534
CC(C)=NOC[C@@H](C)[C@H](OCc1ccccc1)C(C)C	-0.664
COC(=O)[C@H](C)NC(=O)CCC1CC(OC(=O)NCc2cccc3ccccc23)CC2(CCCC(COC(=O)NCC(c3ccccc3)c3ccccc3)O2)O1 (some centres not stated)	0.601
CO[C@H](C1CCCCC1)[C@H](C)C=CCC(=O)OCCCc1ccccc1	0.201
COc1cccc([C@H]2Oc3ccc(OC)cc3C(=NOC[C@@H](C)[C@H](OCc3ccccc3)C(C)C)[C@@H]2O)c1	0.242
CC(=O)OC[C@H]1O[C@H](CC=NO[C@H](C)c2cn([C@H](CO)Cc3ccccc3)nn2)C=C[C@@H]1OC(C)=O	0.995
